System: SK-MEL-28 melanoma
Assay: NCI tumour cell line growth inhibition, 48 h
MEASUREMENT LABEL: TGI

{"MOLECULE": "O=C(O)[C@H]1NC[C@@H]2ON=C(Br)[C@@H]21", "TARGET OF ASSAY": "SK-MEL-28 melanoma", "MEAS VALUE": "> 100 µM"}
{"MOLECULE": "CCOC(=O)CCc1c(C)c2c(O)cc(O)cc2oc1=O", "TARGET OF ASSAY": "SK-MEL-28 melanoma", "MEAS VALUE": "> 100 µM"}
{"MOLECULE": "O=C(O)C1(CC(CCCN2CCCCC2)c2ccccc2)CCCC1 (stereo unspecified)", "TARGET OF ASSAY": "SK-MEL-28 melanoma", "MEAS VALUE": "> 100 µM"}
{"MOLECULE": "CC[C@@]1(O)C(=O)OCc2c1cc1n(c2=O)Cc2c-1nc1ccccc1c2/C=N\\NC(=O)C(N)=O", "TARGET OF ASSAY": "SK-MEL-28 melanoma", "MEAS VALUE": "> 100 µM"}
{"MOLECULE": "CC(Nc1cc(=O)n(C)c(=O)[nH]1)c1ccccc1 (stereo unspecified)", "TARGET OF ASSAY": "SK-MEL-28 melanoma", "MEAS VALUE": "> 100 µM"}
{"MOLECULE": "c1cc(-c2cnn3nc(N4CCOCC4)ccc23)nc(NC2CC2)n1", "TARGET OF ASSAY": "SK-MEL-28 melanoma", "MEAS VALUE": "> 23.7 µM"}
{"MOLECULE": "CCOC(=O)c1cn2ncnc(Oc3ccc(NC(=O)NCCN(CC)CC)c(Cl)c3)c2c1C", "TARGET OF ASSAY": "SK-MEL-28 melanoma", "MEAS VALUE": "3.15 µM"}
{"MOLECULE": "CN(C)C(=S)/N=c1\\ssc(=S)n1Cc1ccccn1", "TARGET OF ASSAY": "SK-MEL-28 melanoma", "MEAS VALUE": "> 100 µM"}
{"MOLECULE": "O/N=C1/C(=C/c2ccccc2)CCCC1C(NO)c1ccccc1 (stereo unspecified)", "TARGET OF ASSAY": "SK-MEL-28 melanoma", "MEAS VALUE": "> 100 µM"}
{"MOLECULE": "CCOC(=S)SC/C(=N\\OC(C)(C)OC)c1ccccc1", "TARGET OF ASSAY": "SK-MEL-28 melanoma", "MEAS VALUE": "> 100 µM"}
{"MOLECULE": "C=CC[C@@]1(C#N)C[C@H](C[C@]2(C#N)C[C@H](CCl)OC(C)(C)O2)OC(C)(C)O1", "TARGET OF ASSAY": "SK-MEL-28 melanoma", "MEAS VALUE": "> 100 µM"}
{"MOLECULE": "CCN1CCN(c2nc(C)cc(N(CCCNc3ccnc4cc(Cl)ccc34)Cc3ccco3)n2)CC1", "TARGET OF ASSAY": "SK-MEL-28 melanoma", "MEAS VALUE": "3.6 µM"}
{"MOLECULE": "NCCCn1c2c(c3ccc([N+](=O)[O-])cc3c1=O)C(=O)c1cc(Cl)ccc1-2", "TARGET OF ASSAY": "SK-MEL-28 melanoma", "MEAS VALUE": "1.67 µM"}
{"MOLECULE": "Cc1cccc(NC(=O)Cc2nc3ccccc3s2)c1C", "TARGET OF ASSAY": "SK-MEL-28 melanoma", "MEAS VALUE": "> 100 µM"}
{"MOLECULE": "CC1CCC(C#N)(NOC2=NCCN2)CC1 (stereo unspecified)", "TARGET OF ASSAY": "SK-MEL-28 melanoma", "MEAS VALUE": "> 100 µM"}
{"MOLECULE": "CCN1CCN(c2cc(C)nc(NCc3cc(Nc4ccnc5cc(Cl)ccc45)ccc3F)n2)CC1", "TARGET OF ASSAY": "SK-MEL-28 melanoma", "MEAS VALUE": "3.71 µM"}
{"MOLECULE": "CCc1ccccc1NC(=O)C1=C(C)NC(C)=C(C(=O)Nc2ccccc2CC)C1c1ccc(NC(C)=O)cc1", "TARGET OF ASSAY": "SK-MEL-28 melanoma", "MEAS VALUE": "52.9 µM"}
{"MOLECULE": "COc1cc(C2c3cc4c(cc3[C@@H](Nc3ccc(N5CCOCC5)cc3)C3COC(=O)[C@H]23)OCO4)cc(OC)c1O (stereo partly specified)", "TARGET OF ASSAY": "SK-MEL-28 melanoma", "MEAS VALUE": "26.8 µM"}
{"MOLECULE": "COc1cc2c(cc1-c1c(C)noc1C)ncc1[nH]c(=O)n([C@H](C)c3ccccn3)c12", "TARGET OF ASSAY": "SK-MEL-28 melanoma", "MEAS VALUE": "> 90.7 µM"}
{"MOLECULE": "Nc1nc(SCc2ccccc2[N+](=O)[O-])c2[nH]cnc2n1", "TARGET OF ASSAY": "SK-MEL-28 melanoma", "MEAS VALUE": "> 100 µM"}
{"MOLECULE": "CCC(=O)n1c(=O)n(-c2ccc([N+](=O)[O-])cc2)c(=O)n1C(=O)CC", "TARGET OF ASSAY": "SK-MEL-28 melanoma", "MEAS VALUE": "> 100 µM"}
